Test system: Mycobacterium tuberculosis
Experiment: Antimycobacterial activity against Mycobacterium tuberculosis H37Rv
Assay type: functional
Provide the recorded MIC for the entries that follow.
Answers are plain numbers, in µM.

NC(=S)c1ccnc(C(=O)Nc2ncc[nH]2)c1 = 23.8
NNC(=O)c1ccncc1 = 0.36
Cn1cc(C#N)nc1NC(=O)c1cc(C(N)=S)ccn1 = 1.24
NC(=O)c1cnccn1 [PYRAZINAMIDE] = 3.12
Cn1c(NC(=O)c2cc(C(N)=S)ccn2)nc2cc(O)ccc21 = 0.27

Provide the reported MIC of each entry below, same order.
1. NC(=S)c1ccnc(C(=O)Nc2nc3ccccc3[nH]2)c1
2. CCc1cc(C(N)=S)ccn1 [ETHIONAMIDE]

A)
1: 12.6; 2: 6.63

Provide the reported MIC of each entry below, same order.
1. Cn1cc(O)nc1NC(=O)c1cc(C(N)=S)ccn1
2. Cc1ccc2c(c1)nc(NC(=O)c1cc(C(N)=S)ccn1)n2C
3. Cn1ccnc1NC(=O)c1cc(C(N)=S)ccn1
4. CC[C@@H](CO)NCCN[C@@H](CC)CO
5. Cc1cn(C)c(NC(=O)c2cc(C(N)=S)ccn2)n1
6. O=C(O)c1cn(C2CC2)c2cc(N3CCNCC3)c(F)cc2c1=O
7. COc1ccc2c(c1)nc(NC(=O)c1cc(C(N)=S)ccn1)n2C

A)
[0.97, 3.14, 15.1, 5.01, 13.6, 4.73, 0.35]

Q) For the compound Cn1c(NC(=O)c2cc(C(N)=S)ccn2)nc2ccccc21 , what MIC is on record?
A) 6.52
